All values here come from ChEMBL document CHEMBL1155011.

# MEASUREMENT_NOTES: Plasma concentration in Sprague-Dawley rat at 1 mg/kg, iv after 1 hr
# Assay type: ADME, organism-based
# Set-up: dose 1 mg/kg, route intravenous
ASSAY_ENDPOINT: concentration at 1 h (ng/mL)
// units = ng/mL; emit number, no label

Query :: Any idea what concentration at 1 h was measured for CN1CCN(C[C@H](c2cccc(OC(F)(F)F)c2)C2(O)CCCCC2)CC1.Cl.Cl ?
Result :: 109

* * *

# ASSAY_SYSTEM: Sodium-dependent noradrenaline transporter (Homo sapiens, UniProt P23975)
# Sequence (P23975 whole entry): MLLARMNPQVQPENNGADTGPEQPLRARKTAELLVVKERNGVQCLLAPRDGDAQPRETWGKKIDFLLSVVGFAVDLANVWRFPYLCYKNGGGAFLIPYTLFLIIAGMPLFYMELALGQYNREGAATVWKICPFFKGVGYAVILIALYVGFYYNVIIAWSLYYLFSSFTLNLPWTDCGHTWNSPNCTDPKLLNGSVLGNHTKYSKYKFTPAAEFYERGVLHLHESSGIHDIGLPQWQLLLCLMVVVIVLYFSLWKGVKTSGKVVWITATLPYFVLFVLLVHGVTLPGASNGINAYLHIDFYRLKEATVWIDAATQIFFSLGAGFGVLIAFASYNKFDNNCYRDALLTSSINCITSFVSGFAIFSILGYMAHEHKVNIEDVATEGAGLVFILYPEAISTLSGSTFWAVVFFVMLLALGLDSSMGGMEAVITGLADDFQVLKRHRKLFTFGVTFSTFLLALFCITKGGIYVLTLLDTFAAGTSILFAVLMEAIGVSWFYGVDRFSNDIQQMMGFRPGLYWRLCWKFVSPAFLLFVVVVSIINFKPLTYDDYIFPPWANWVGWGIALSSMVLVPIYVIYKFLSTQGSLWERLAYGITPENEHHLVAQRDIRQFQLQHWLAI
# MEASUREMENT_NOTES: Inhibition of norepinephrine uptake at human norepinephrine transporter expressed in MDCK-Net6 cells at 1000 nM
# Format: cell-based
Recorded inhibition for the following compounds
State just the number; it will be interpreted in %.

> print(dat)
                                   compound  assay.endpoint  observed.value
1  OC1(C(CN2CCNCC2)c2ccccc2F)CCCCC1 (stereo unspecified)      inhibition              31
2  CN1CCN(CC(c2ccc(Cl)cc2)C2(O)CCCCC2)CC1 (stereo unspecified)      inhibition               7
3  COc1ccc(C(CN2CCNCC2)C2(O)CCCCC2)cc1 (stereo unspecified)      inhibition              34
4  OC1(C(CN2CCNCC2)c2ccc(Cl)cc2)CCCCC1 (stereo unspecified)      inhibition              29
5  COc1ccc(C(CN2CCN(C)CC2)C2(O)CCCCC2)cc1 (stereo unspecified)      inhibition              34

Field: next compound
Query :: Looking for the measured inhibition of CN1CCN(CC(c2ccccc2F)C2(O)CCCCC2)CC1 (stereo unspecified) , can you help?
Result :: 19

* * *

# ASSAY_SYSTEM: 5-hydroxytryptamine receptor 6 (Homo sapiens)
# Sequence (P50406 whole entry): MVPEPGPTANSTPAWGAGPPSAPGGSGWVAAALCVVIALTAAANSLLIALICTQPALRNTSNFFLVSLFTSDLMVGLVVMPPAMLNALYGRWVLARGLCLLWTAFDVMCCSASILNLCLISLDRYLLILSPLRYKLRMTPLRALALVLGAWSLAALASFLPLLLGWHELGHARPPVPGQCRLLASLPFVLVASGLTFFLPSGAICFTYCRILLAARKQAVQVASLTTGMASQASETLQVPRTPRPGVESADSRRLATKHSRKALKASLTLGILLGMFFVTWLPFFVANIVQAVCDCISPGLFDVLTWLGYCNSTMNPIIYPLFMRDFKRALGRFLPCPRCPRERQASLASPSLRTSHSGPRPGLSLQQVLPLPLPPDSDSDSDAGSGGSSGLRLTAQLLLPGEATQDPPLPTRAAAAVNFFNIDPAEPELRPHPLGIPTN
# MEASUREMENT_NOTES: Activity at 5HT6 receptor assessed as calcium mobilization by FLIPR
pEC50: −log10 of the molar value.
ASSAY_ENDPOINT: pEC50

Query :: Entry CN1CCN(C[C@H](c2cccc(OC(F)(F)F)c2)C2(O)CCCCC2)CC1.Cl.Cl has what pEC50?
Result :: < 5.00

* * *

# MEASUREMENT_NOTES: Plasma concentration in Sprague-Dawley rat at 30 mg/kg, po after 8 hrs
# Format: ADME, organism-based
# Set-up: dose 30 mg/kg, route oral
ASSAY_ENDPOINT: concentration at 8 h (ng/mL)
Hi! Could you send only the number? It should be in ng/mL, unit omitted.

Query :: Return reported concentration at 8 h; argument: CN1CCN(C[C@H](c2cccc(OC(F)(F)F)c2)C2(O)CCCCC2)CC1.Cl.Cl
Result :: 14.3

* * *

# MEASUREMENT_NOTES: Cmax in Sprague-Dawley rat at 30 mg/kg, ip
# Format: ADME, organism-based
# Set-up: dose 30 mg/kg, route intraperitoneal
# PARTICULARS: in vivo
ASSAY_ENDPOINT: Cmax (ng/mL)
# output: bare number, implied unit ng/mL

Query :: Give the measured Cmax of CN1CCN(C[C@H](c2cccc(OC(F)(F)F)c2)C2(O)CCCCC2)CC1.Cl.Cl .
Result :: 2690

* * *

# MEASUREMENT_NOTES: Cmax in Sprague-Dawley rat at 30 mg/kg, po
# Type: ADME, organism-based
# Design: dose 30 mg/kg, route oral
# PARTICULARS: in vivo
ASSAY_ENDPOINT: Cmax (ng/mL)
Your answer is read as ng/mL, so omit the unit and give the number.

Query :: # Cmax lookup, item CN1CCN(C[C@H](c2cccc(OC(F)(F)F)c2)C2(O)CCCCC2)CC1.Cl.Cl
Result :: 324
